Cited source for all entries: patent US20200277374A1

Reported Percent Siglec-7 Surface Expression, NK cells is given for each of the following binders.
- Assayed Target: human Siglec-7 expressed on human cells (primary monocytes, dendritic cells, macrophages, NK cells, … (human, UniProt Q9Y286 19-467))
- Sequence (Q9Y286 19-467): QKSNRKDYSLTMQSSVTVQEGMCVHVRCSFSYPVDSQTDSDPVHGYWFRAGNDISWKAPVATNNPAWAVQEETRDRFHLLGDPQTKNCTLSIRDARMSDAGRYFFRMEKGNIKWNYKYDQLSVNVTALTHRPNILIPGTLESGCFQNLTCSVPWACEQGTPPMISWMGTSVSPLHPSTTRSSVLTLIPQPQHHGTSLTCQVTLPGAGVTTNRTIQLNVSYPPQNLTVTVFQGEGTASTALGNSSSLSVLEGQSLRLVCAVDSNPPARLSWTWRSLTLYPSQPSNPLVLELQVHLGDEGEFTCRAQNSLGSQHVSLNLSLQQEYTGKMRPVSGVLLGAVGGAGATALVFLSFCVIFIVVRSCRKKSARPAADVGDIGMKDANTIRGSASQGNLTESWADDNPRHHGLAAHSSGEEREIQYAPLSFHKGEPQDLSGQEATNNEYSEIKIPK
- Procedure Summary: cell-based or functional assay
The reply should be a number in %, with the unit left off.

Past entries and their recorded results:
anti-Siglec-7 antibody 4D7 (antibody, V domains shown, Variable domains assembled from FR and CDR entries) VH: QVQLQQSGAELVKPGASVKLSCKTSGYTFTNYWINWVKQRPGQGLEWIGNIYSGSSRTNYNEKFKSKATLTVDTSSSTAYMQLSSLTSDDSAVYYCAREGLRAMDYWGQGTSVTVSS VL: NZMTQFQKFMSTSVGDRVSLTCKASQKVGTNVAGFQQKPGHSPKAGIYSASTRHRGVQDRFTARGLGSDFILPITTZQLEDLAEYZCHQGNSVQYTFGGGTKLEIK :: 87.6
anti-Siglec-7 antibody 3E11 (antibody, V domains shown, Variable domains assembled from FR and CDR entries) VH: QVQLQQSGAELARPGASVKLSCKASGYIFTDYGITWVKQRTGQGLEWIGEISPRSGETYFNENYRVKATLTADKSSSTAYMQLFSLTSEDSAVYFCAREGNPFTYWGHGTLVTVSA VL: DVZMTQTPLSLPVSLGDQASISCRSSQSLVHSTGNTYLHWYLQKPGQSPKLLIYKVSNRFCGVPDRFSGSGAGTDFTLKISRVEAEDLGVYFCSQNTHVPYTFGGGTKLEIK :: 108
anti-Siglec-7 antibody 4A1 (antibody, V domains shown, Variable domains assembled from FR and CDR entries) VH: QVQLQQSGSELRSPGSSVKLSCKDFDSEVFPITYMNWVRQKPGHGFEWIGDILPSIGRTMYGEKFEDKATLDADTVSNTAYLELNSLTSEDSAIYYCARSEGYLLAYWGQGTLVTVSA VL: DVVMTQTPLSLPVSLGDQASISCRSSQSLVHSTGNIYLHWYLQKPGQSPKLLIYKVSNRFZGVPDRFSGSGSGTDFTLKISRVEAEDLGVYFCSQNTHVPYTFGGGTKLEIK :: 132
anti-Siglec-7 antibody 2G1 (antibody, V domains shown, Variable domains assembled from FR and CDR entries; the printed VL FR1 looks shortened at its N-terminus; also called 2G11 (misprint in text)) VH: EVKLVESGGTLVKPGGSLKISCAASGFTFSNYDMSWVRQNPEKRLEWVATISSGGDYTYYPDIFKGRFTISRDDAKNALYLQMSSLRSEDTALYYCARHGYGNYDWYFDVWGAGATVTVSS VL: VLTQSPAIMSASPGEKVTMTCSANSSFIYMYWYQQKPGSSPRLLIFDTSNLASGVPIRFSGSGSGTSYSLTISRMEAEDTATYYCQQWSSSPLTFGGGTKLELK :: 114

Kindly consider the entry below.
Lab book: Percent Siglec-7 Surface Expression, NK cells of anti-Siglec-7 antibody 1E8 (antibody, V domains shown) VH: QVQLQQSGAELVRPGASVKLSCSASGFNIKGSLLHWIKQRPLQGLEWIGWIDPEDGETRFDPKFQDKAFLTADTSSTTAYLQLSSLTSEDTAIYYCARTEYSNPAWFAYWGQGTLVTVSA VL: DIQMTQFPATLSVTPGDRVSLSCRASQSISDYLHWYQHKSHESPRLLIKYASQSISGIPSRFSGSGSGWDFTLSINSVEPEDVGIYYCQKGLNFPLTFGGGTKLEMK noted as 144
